The compounds listed here are annotated with their growth inhibition.
Test: NCI Yeast Anticancer Drug Screen. Data for the mlh1 rad18 strain (AID 175)
Settings: S. cerevisiae mlh1 rad18 strain growth inhibition; at 50.0 µM; stronger effect = higher value
About 79,000 compounds went through this panel and 15% of them were active in at least one assay; those are over-represented in the sample as a whole.

{"columns": ["Compound", "Unit Symbol", "growth inhibition"],
 "data": [
  ["Cc1ccc(-c2nnc(C)o2)cc1", "%", 6.2],
  ["COC1C(O)=C2C(=O)OC(C)(O)/C=C/C=C\\C=C/C=C/C(c3ccccc3)NC(=O)/C=C/C=C/C=C/C=C/C2(C)C1O (stereo unspecified)", "%", 4.5],
  ["CCCCOC(=O)NC(=O)c1cn(CCCOC(=O)CCCCCCCCC(=O)OCCCn2cc(C(=O)NC(=O)OCCCC)c(=O)[nH]c2=O)c(=O)[nH]c1=O", "%", -35.9],
  ["COC1OC(CCl)C(Cl)C(OC)C1OC (stereo unspecified)", "%", 14.4],
  ["COc1ccc(-c2nnc3cc(C)n4nnnc4n23)cc1OC", "%", 16.2],
  ["COC(=O)/C(C)=C1\\C=C(C)CC(C)(C)C1", "%", -2.3],
  ["CN(C)Cc1cc(C(=O)/C=C/c2ccc(Cl)cc2)cc(CN(C)C)c1O", "%", -18.1],
  ["OC1C2CCC(C2)C1CN1CCOCC1 (stereo unspecified)", "%", 1.7],
  ["OC(CNc1ncccn1)(Cc1ccccc1)Cc1ccccc1", "%", 21.2],
  ["COC(=O)CCN1CCN(CCO)CC1C (stereo unspecified)", "%", -32.5],
  ["CCCCc1c(O)nc(NCCCC(N)C(=O)O)[nH]c1=O (stereo unspecified)", "%", -17.8]
]}
